For each of the compounds below, state its TGI.
test system: BT-549 breast; test: NCI tumour cell line growth inhibition, 48 h
Answers are plain numbers, in µM.

- COc1cccc2c1C(=N)c1c(O)c3c(c(O)c1C2=O)C[C@@](O)(C(C)=O)C[C@@H]3OC1CC(N)C(O)C(C)O1 (stereo partly specified): 16.2
- Cc1cc(C)n(CN(Cn2nc(C)cc2C)c2ccc(N(Cn3nc(C)cc3C)Cn3nc(C)cc3C)cc2)n1: 39.2
- Cc1ccc(-n2cc(-c3ccc(Cl)cc3)c3c(NNC(=S)NCc4ccccc4)ncnc32)cc1: 83
- CCOC(=O)C(Cc1ccc(N(CCCl)CCCl)cc1)NC(=O)C(CC(C)C)NC(C)=O (stereo unspecified): 21.7

// for each compound below, give its TGI
1. COc1ccc(/C=C2\CN(Cc3cn(CCCNc4ccnc5cc(Cl)ccc45)nn3)C/C(=C\c3ccc(OC)cc3)C2=O)cc1
2. O=C(c1ccccc1)c1cc(-c2ccccc2)c(-c2ccccc2)[nH]c(=O)c1=O
3. CC(=O)OC1C(OC/C2=C/C3[C@@H](C(C)C)CC=C(C)[C@@H]3CC(OC(=O)/C=C/c3cn(C)cn3)[C@]3(C)C=C[C@@]2(O)O3)OCC(O)C1O (stereo partly specified)
4. O=C1c2ccccc2C(=O)c2c1c1cc(O)ccc1n2Cc1ccc(Cl)cc1Cl
5. COC(=O)[C@@H](C)C[C@H](Cc1ccccc1)NC(=O)c1cccc([C@@H](C[C@H](C(C)C)N(C)C(=O)[C@@H](NC(=O)[C@H]2CCCCN2C)C(C)C)OC(C)=O)n1

1: 12.9; 2: 53.1; 3: 0.136; 4: 36.9; 5: 0.101

// for each compound below, give its TGI
1. COc1cc2c(cc1C)NC(=O)/C2=C/c1c(Cl)n(C)c2ccccc12
2. COc1c(-c2ccc3c(c2)OCO3)oc2cc3c(c(OC)c2c1=O)OCO3
3. Cc1nc2cc(NC(=O)CN3CCN(CCN4C(=O)c5cccc6cccc(c56)C4=O)CC3)ccc2s1
4. C=C(Cl)C(Cl)(CBr)CCC(Cl)C(C)C (stereo unspecified)
5. COc1ccc(/C=C2\CC(C)CC3C2=NN(C(C)=O)C3c2ccc(OC)c(OC)c2)cc1OC (stereo unspecified)
6. CN(C)CCCN1c2ccc3ccccc3c2Sc2cccc(Cl)c21
7. CC(C)(C)OC(=O)N1CC(COS(C)(=O)=O)c2ccc(O)cc21 (stereo unspecified)
8. Oc1ccc(-c2nc(-c3ccc4oc5ccc(-c6[nH]c(-c7ccc(O)cc7)nc6-c6ccccc6)cc5c4c3)c(-c3ccccc3)[nH]2)cc1

24.4
46.6
24.1
27.9
37.9
42.7
3.58
58.2

// for each compound below, give its TGI
1. CCS(=O)(=O)Nc1ccc(Oc2ccc(F)cc2F)c(-c2cn(C)c(=O)c3[nH]ccc23)c1
2. O=C(O)CCCCCNC(=O)CCC(CN(CC(=O)OCc1ccccc1)CC(=O)OCc1ccccc1)N(CC(=O)OCc1ccccc1)CC(=O)OCc1ccccc1 (stereo unspecified)

1. 21.3
2. 33.1

====

system: A549 NSCLC; assay: NCI tumour cell line growth inhibition, 48 h; in the data active = GI50 below about 0.43 µM; inactive = the rest
Thanks in advance; please answer with one of these: T (active), F (inactive)

The following compounds have reported results that may help.
* CC1SC(c2cccc(Oc3ccccc3)c2)N(CCc2cccs2)C1=O (centres undefined) | F
* COc1ccc(C2CC(c3ccc(OC)c(OC)c3)=NN2C(=O)c2cc(OC)c(OC)c(OC)c2)cc1 (centres undefined) | F
* COc1cc(C2C3=C(COC3=O)N(CCO)c3cc4c(cc32)CCC4)cc(OC)c1OC (centres undefined) | T
* COc1ccc(/C=C2\CC(C)CC3C2=NN(C(C)=O)C3c2ccc(OC)c(OC)c2)cc1OC (centres undefined) | F

Answer briefly: the call reported for N#Cc1c(-c2ccc(Cl)cc2)n([O-])c2ccccc2[n+]1=O in this assay.
F

Answer briefly: the call reported for COC(=O)[C@@H](C)C[C@H](Cc1ccccc1)NC(=O)c1cccc([C@@H](C[C@H](C(C)C)N(C)C(=O)[C@@H](NC(=O)[C@H]2CCCCN2C)C(C)C)OC(C)=O)n1 in this assay.
T

Answer briefly: the call reported for COc1ccc(/C(C)=C(\c2ccc(Cl)cc2)c2ccc(OCCN3CCCCC3)cc2)cc1F in this assay.
F

Answer briefly: the call reported for COc1ccc(C(=O)CC(Cl)=C(Cl)Cl)cc1 in this assay.
F

Answer briefly: the call reported for CN(C)CCCn1c2c(c3ccc([N+](=O)[O-])cc3c1=O)C(=O)c1ccccc1-2 in this assay.
F
